The following molecules are shown together with reported activity (anti-platelet-aggregation) times that of PGE1 values.
- Test system: human platelet rich plasma
- Assay Text: Inhibition of ADP-stimulated platelet aggregation in fresh human platelet rich plasma (Born aggregometer)
- Format: cell-based
- Assay Setup: summary values given in the description
- Description: Aggregation of platelets in […] of fresh human platelet. rich plasma (PRP) was monitored in a Born aggregometer. […] The anti-aggregatory effect of the compound was assessed by measuring the percentage inhibition of platelet aggregation in the presence of the compound as compared with when it was completely absent.
Test Readout: activity (anti-platelet-aggregation) times that of PGE1

INSERT INTO results (molecule, measured_value) VALUES
  ('O=C(O)CCCCCC[C@H]1C(=O)NC(=O)N1CC[C@H](O)C1CCCCC1 [[(5S),(3S)]]', '0.06 times that of PGE1'),
  ('O=C(O)CCCCCC[C@H]1C(=O)NC(=O)N1CC[C@@H](O)C1CCCCC1 [[(5S),(3R)]]', '~40 times that of PGE1'),
  ('O=C(O)CCCCCC[C@@H]1C(=O)NC(=O)N1CC[C@@H](O)C1CCCCC1 [[(5R),(3R)]]', '0.05 times that of PGE1');
